system: DU-4475; conditions: 72 h
readout: EC50, CellTiter-Glo (nM)
Give the quantity in nM, number only.

Query :: Returns the measured EC50, CellTiter-Glo for the input compound. Input: "COc1cc(F)c(F)c(Nc2ccc(I)cc2F)c1NS(=O)(=O)C1(C[C@H](O)CO)CC1"
Result :: 63.6

Query :: Returns the measured EC50, CellTiter-Glo for the input compound. Input: Cc1sc2c(c1C)C(c1ccc(Cl)cc1)=N[C@@H](CC(=O)OC(C)(C)C)c1nnc(C)n1-2 [(+)JQ1]
Result :: 956

Query :: Returns the measured EC50, CellTiter-Glo for the input compound. Input: Cn1cc(C2=Nc3cc(NC(=O)C(N)C4CCCCC4)cc4c3C2=CNNC4=O)cn1 (centres undefined)
Result :: 9440

Query :: Returns the measured EC50, CellTiter-Glo for the input compound. Input: "CC(=O)N(O)CCCCCNC(=O)CCC(=O)N(O)CCCCCNC(=O)CCC(=O)N(O)CCCCCN"
Result :: 3480
